Experiment: SK-BR-3 cell growth inhibitors, pilot screen, 24 h, human (AID 572);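 also: compound exposure lasted between 18 and 24 h rather than exactly 24 h; 100% = carrier-treated control wells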
Details: SK-BR-3 viability, CellTiter-Glo luminescence, at 10 µM, stronger effect = lower value
Cut-off 90% on viability: below means true (1), at or above means false (0).

## Input Please determine if COc1cc2c(cc1OC)C(c1cc(OC)c(OC)c(OC)c1)NCC2 (stereo not given) is below 90% in terms of viability.
## Output false (0)

## Input Criterion: viability strictly below 90%. Is it met by O=C(CN1C(=O)C2C3C=CC(C3)C2C1=O)NCc1ccc2c(c1)OCO2 (stereo not given) ?
## Output false (0)

---

The compounds listed here are annotated with their inhibition.
Experiment: 384-well plate pilot, post-Golgi transport modulator project, inhibition of yeast transport mutant growth (AID 636)
Conditions: absorbance 615 nm, about 18 h, stronger effect = higher value
Form entry: value (%) — number only.

Solved entries:
CCCCCc1c(O)c2ccccc2[nH]c1=O : -1.71
COc1ccccc1NC(=O)CSc1nnnn1-c1ccc2c(c1)OCO2 : -4.11
Cc1ccc(CN2C(=O)CCC2C(=O)NCCCN2CCC(C)CC2)cc1 (stereo unspecified) : -5.73
CCNC(=O)CC(=O)Nc1ccccc1C(=O)O : -5.95

## Input What measured inhibition goes with O=C(CSc1nnc(CNC(=O)c2cccs2)o1)NC1CCCC1 ?
## Output -0.26

## Input Data request, read-out inhibition, for COc1ccccc1C(=O)n1nc(-c2ccc(Cl)cc2)nc1N
## Output -5.06

## Input Field request: inhibition | item: CC(=O)Nc1ccc(NS(=O)(=O)C(F)(F)F)cc1
## Output -2.34

## Input Name the reported inhibition value associated with the compound COc1cc(C2=NOC(C(=O)NCc3ccc(F)cc3)C2)cc(OC)c1OC (stereo unspecified)
## Output -4.74

## Input Need inhibition of COc1cccc(Oc2ccc(N)cn2)c1 , thanks.
## Output -2.37

## Input # query: inhibition of entry COc1ccccc1OCCCCNCCO
## Output -1.56

## Input If you can, please state the reported inhibition value of Cc1ccc(NC(=O)CSc2nnc(CNC(=O)c3c(F)cccc3Cl)o2)cc1 .
## Output -0.51

## Input Give its inhibition value. Item: COc1ccccc1N1CC(C(=O)Nc2cccc(C(=O)O)c2)CC1=O (stereo unspecified)
## Output 3.07

## Input Bench note: what inhibition did COc1ccc(C(=O)N(CCN2CCOCC2)CC(=O)NC2CCCC2)cc1OC show?
## Output -0.8

---

Assay: reducers of endogenous Her2 protein level, primary screen, SKBR3 breast tumor cells, AlphaScreen, ATP viability (AID 461);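 also: percent of carrier control wells set as 100% viability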
Details: 18-24 h, measured here: SKBR3 viability, ATP luminescence, at 10 µM
# viability values compiled below
Quick reminder: number only, in %, skip the unit.

## Input # viability lookup, item CCOc1ccc2nc(NC(=O)CSc3nnnn3C3CCCCC3)sc2c1
## Output 92

## Input Name the reported viability value associated with the molecule COc1ccc(Cc2noc(-c3ccc(C)cc3)n2)cc1
## Output 91

## Input Given CC(=O)Nc1ccc(S(=O)(=O)NCC(C)NS(=O)(=O)c2ccc(NC(C)=O)cc2)cc1 (stereo not given) , state its recorded viability.
## Output 106

## Input Given the entry Oc1ccc2cccnc2c1 , report its measured viability.
## Output 94.5

## Input Look up viability for this molecule: CC1=CC=CC2=NC(=O)CC(C)(C(=O)N(CC(=O)NC(C)C)C3CCCC3)N12 (stereo not given)
## Output 101

The measurements presented in this section are drawn from PubChem BioAssay.
